The reported measurements were obtained from PubChem BioAssay AID1963981.

Test system: 354836-022-R-J1-PDC multicell spheroid viability;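 further: spheroids exposed to agents for seven days before the viability read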
Assay: Anticancer human tumor 354836-022-R-J1-PDC patient-derived head and neck squamous cell carcinoma cell line growth inhibition [PI3K]
Details: second compound 3.16 µM; first compound 10 µM; active compounds read low
Criterion: viability, T/C strictly under 70%. Met: rule met. Not met: rule not met.

I'd appreciate it if you could check whether CNC(=O)c1ccc(N2C(=S)N(c3ccc(C#N)c(C(F)(F)F)c3)C(=O)C2(C)C)cc1F + CC(Nc1ncnc2nc[nH]c12)c1cc2cccc(Cl)c2c(=O)n1-c1ccccc1 has viability, T/C smaller than 70%.
rule not met

API: query returns whether the compound falls strictly under 70% in viability, T/C. Query: CC(Cn1ccc(-c2ccc(C#N)c(Cl)c2)n1)NC(=O)c1cc(C(C)O)[nH]n1 (stereo not given) + CC(Nc1ncnc2nc[nH]c12)c1cc2cccc(Cl)c2c(=O)n1-c1ccccc1
rule not met

Input CC(Cn1ccc(-c2ccc(C#N)c(Cl)c2)n1)NC(=O)c1cc(C(C)O)[nH]n1 (stereo not given) + Cc1nc(NC(=O)N2CCCC2C(N)=O)sc1-c1ccnc(C(C)(C)C(F)(F)F)c1 ; condition: viability, T/C strictly below 70%. Does it hold?
rule met

Find out if reported viability, T/C for CC1(C)CCC(CN2CCN(c3ccc(C(=O)NS(=O)(=O)c4ccc(NCC5CCOCC5)c([N+](=O)[O-])c4)c(Oc4cnc5[nH]ccc5c4)c3)CC2)=C(c2ccc(Cl)cc2)C1 + Cc1nc(NC(=O)N2CCCC2C(N)=O)sc1-c1ccnc(C(C)(C)C(F)(F)F)c1 is less than 70%
rule met

Bench note: check whether CC1(C)CCC(Nc2ncc(C(F)(F)F)c(-c3c[nH]c4c(P(C)(C)=O)c(C#N)ccc34)n2)CN1 (stereo not given) + Cc1nc(NC(=O)N2CCCC2C(N)=O)sc1-c1ccnc(C(C)(C)C(F)(F)F)c1 shows viability, T/C below 70%
rule met

Please check: viability, T/C for Cn1ncc(Cl)c1-c1cc(C(=O)NC(CN)Cc2cccc(F)c2)sc1Cl (stereo not given) + Cc1nc(NC(=O)N2CCCC2C(N)=O)sc1-c1ccnc(C(C)(C)C(F)(F)F)c1 , strictly under 70% or not?
rule met

Answer whether the compound C[C@@H](NC(=O)c1ncnc(N)c1Cl)c1ncc(C(=O)Nc2cc(C(F)(F)F)c(Cl)cn2)s1 + Cc1nc(NC(=O)N2CCCC2C(N)=O)sc1-c1ccnc(C(C)(C)C(F)(F)F)c1 has viability, T/C strictly less than 70%
rule met

Decide: viability, T/C of C=CC(=O)N1CCN(c2nc(=O)n(-c3c(C)ccnc3C(C)C)c3nc(-c4c(O)cccc4F)c(F)cc23)C(C)C1 (stereo not given) + CC(Nc1ncnc2nc[nH]c12)c1cc2cccc(Cl)c2c(=O)n1-c1ccccc1 strictly below 70%?
rule not met

Dear colleague, could you confirm whether viability, T/C of CC1(C)CCC(CN2CCN(c3ccc(C(=O)NS(=O)(=O)c4ccc(NCC5CCOCC5)c([N+](=O)[O-])c4)c(Oc4cnc5[nH]ccc5c4)c3)CC2)=C(c2ccc(Cl)cc2)C1 + CC(Nc1ncnc2nc[nH]c12)c1cc2cccc(Cl)c2c(=O)n1-c1ccccc1 falls below 70%? Thanks.
rule not met
